Numbers sourced from patent US20240018502A1.

Biological target: plasma purified human complement protein C3 (human) (UniProt P01024)
Sequence (P01024 23-667, chain 1 of 2): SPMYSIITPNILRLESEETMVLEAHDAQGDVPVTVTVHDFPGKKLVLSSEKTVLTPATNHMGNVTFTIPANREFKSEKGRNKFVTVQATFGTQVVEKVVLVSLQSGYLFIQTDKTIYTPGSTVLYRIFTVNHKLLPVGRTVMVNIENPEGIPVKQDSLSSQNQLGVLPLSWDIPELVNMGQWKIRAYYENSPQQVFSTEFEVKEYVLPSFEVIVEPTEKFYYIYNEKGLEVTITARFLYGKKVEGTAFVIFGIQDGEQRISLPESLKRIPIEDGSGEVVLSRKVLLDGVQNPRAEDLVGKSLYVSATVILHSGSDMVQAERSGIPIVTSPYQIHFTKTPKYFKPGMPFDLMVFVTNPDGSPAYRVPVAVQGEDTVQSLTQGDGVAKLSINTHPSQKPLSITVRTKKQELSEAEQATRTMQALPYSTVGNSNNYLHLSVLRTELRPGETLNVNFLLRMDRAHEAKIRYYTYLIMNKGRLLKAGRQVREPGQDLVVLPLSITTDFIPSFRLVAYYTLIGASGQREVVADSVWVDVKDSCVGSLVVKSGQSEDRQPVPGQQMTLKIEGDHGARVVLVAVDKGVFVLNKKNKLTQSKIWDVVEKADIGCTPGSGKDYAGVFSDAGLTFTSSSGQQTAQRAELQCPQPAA
Sequence (P01024 672-1663, chain 2 of 2): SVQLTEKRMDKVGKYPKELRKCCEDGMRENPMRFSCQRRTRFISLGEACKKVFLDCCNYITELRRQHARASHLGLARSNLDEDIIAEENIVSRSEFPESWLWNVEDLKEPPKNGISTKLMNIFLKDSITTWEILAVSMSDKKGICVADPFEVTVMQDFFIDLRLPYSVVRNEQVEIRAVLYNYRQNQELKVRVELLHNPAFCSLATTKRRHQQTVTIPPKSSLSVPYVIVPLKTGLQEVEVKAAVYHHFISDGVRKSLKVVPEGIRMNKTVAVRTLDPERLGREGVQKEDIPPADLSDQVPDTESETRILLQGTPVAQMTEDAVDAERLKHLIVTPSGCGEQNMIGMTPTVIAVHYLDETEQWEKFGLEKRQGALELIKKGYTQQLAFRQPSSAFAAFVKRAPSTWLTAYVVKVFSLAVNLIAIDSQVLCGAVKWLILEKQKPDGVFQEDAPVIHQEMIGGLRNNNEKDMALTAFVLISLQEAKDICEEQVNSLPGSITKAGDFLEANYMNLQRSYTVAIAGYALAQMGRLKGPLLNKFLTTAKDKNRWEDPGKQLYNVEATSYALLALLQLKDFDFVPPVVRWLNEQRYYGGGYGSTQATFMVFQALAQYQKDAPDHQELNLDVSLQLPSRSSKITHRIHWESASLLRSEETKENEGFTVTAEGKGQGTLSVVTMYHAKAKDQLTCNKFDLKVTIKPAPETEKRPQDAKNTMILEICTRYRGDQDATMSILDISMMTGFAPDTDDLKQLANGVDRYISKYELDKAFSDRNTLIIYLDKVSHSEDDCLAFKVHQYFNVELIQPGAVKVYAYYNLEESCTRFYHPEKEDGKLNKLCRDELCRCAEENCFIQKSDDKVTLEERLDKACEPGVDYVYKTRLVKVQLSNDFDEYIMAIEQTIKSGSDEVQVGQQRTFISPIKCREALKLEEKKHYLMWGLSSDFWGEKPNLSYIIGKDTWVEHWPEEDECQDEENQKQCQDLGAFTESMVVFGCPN
Assay: cell-based or functional assay
Quick list: EC50 hC3 cleavage per entry.
State the answer as a number, implicitly in nM.

{"binder": "MTSP-1 protease domain Q38R/I41R/F99L/C122S/G151N/Q192G (enzyme) VVGGTDADEGEWPWQVSLHALGRGHRCGASLISPNWLVSAAHCYIDDRGFRYSDPTQWTAFLGLHDQSQRSAPGVQERRLKRIISHPFFNDFTLDYDIALLELEKPAEYSSMVRPISLPDASHVFPAGKAIWVTGWGHTQYGGTNALILQKGEIRVINQTTCENLLPQQITPRMMCVGFLSGGVDSCGGDSGGPLSSVEADGRIFQAGVVSWGDGCAQRNKPGVYTRLPLFRDWIKENTGV", "result-units": "nM", "EC50 hC3 cleavage": 248}
{"binder": "MTSP-1 protease domain Q38H/D60bT/F60eS/Y60gW/ins97aV/F97D/T98P/F99L/C122S/G151H/Q175L/Q192E (enzyme) VVGGTDADEGEWPWQVSLHALGHGHICGASLISPNWLVSAAHCYIDTRGSRWSDPTQWTAFLGLHDQSQRSAPGVQERRLKRIISHPFFNDDVPLDYDIALLELEKPAEYSSMVRPISLPDASHVFPAGKAIWVTGWGHTQYGGTHALILQKGEIRVINQTTCENLLPQLITPRMMCVGFLSGGVDSCEGDSGGPLSSVEADGRIFQAGVVSWGDGCAQRNKPGVYTRLPLFRDWIKENTGV", "result-units": "nM", "EC50 hC3 cleavage": 66.7}

Fill in the blank: the reported EC50 hC3 cleavage of MTSP-1 protease domain A35T/I41S/Y59F/ins97aV/C122S/Y146F/V183A/Q192G/R235H (enzyme) VVGGTDADEGEWPWQVSLHTLGQGHSCGASLISPNWLVSAAHCFIDDRGFRYSDPTQWTAFLGLHDQSQRSAPGVQERRLKRIISHPFFNDFVTFDYDIALLELEKPAEYSSMVRPISLPDASHVFPAGKAIWVTGWGHTQFGGTGALILQKGEIRVINQTTCENLLPQQITPRMMCAGFLSGGVDSCGGDSGGPLSSVEADGRIFQAGVVSWGDGCAQRNKPGVYTRLPLFHDWIKENTGV is ____.
18.4
